measurement_target: Aryl hydrocarbon receptor (Homo sapiens) (UniProt P35869)
Sequence (P35869 whole entry, looked up): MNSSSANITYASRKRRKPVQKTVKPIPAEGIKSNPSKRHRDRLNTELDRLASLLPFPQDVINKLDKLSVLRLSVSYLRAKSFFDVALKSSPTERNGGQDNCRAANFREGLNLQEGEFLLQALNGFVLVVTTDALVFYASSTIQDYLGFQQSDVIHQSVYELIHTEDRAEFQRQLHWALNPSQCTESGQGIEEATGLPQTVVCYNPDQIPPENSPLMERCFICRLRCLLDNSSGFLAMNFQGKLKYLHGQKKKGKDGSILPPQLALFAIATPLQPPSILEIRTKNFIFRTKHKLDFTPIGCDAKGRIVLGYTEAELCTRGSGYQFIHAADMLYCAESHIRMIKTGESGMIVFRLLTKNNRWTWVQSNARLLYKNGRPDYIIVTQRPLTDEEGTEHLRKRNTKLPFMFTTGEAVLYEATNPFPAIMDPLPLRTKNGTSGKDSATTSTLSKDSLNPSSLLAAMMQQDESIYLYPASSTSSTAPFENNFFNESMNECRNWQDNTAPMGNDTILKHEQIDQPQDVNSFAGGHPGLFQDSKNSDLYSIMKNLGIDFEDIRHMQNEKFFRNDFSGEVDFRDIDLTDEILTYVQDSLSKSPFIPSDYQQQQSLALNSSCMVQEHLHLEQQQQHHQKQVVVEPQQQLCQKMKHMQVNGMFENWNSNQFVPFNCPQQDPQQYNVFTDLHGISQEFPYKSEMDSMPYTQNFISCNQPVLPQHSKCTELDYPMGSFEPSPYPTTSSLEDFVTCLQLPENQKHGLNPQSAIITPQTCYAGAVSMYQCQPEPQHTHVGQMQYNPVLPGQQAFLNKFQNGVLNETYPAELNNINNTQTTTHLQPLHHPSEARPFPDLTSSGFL
procedure_details: ATG_Ahr_CIS: Attagene CIS-FACTORIAL HepG2 Assay for human Aryl Hydrocarbon Receptor (Ahr) (AID 2282930)
recorded_conditions: HepG2 AhR cis-factorial reporter transcription; actives raise or lower the signal
Calls of active or inactive are those of the source. Rule for the calls: active = hit-call score of the fitted dose curve at least 0.9, where 1 is the maximum; inactive = score below 0.9.
Outcome field: choose from active, inactive

// known answers, use as guide
smi	group_label
Cc1cc(N=Nc2ccccc2C)ccc1N	active
CC(C)(C)OOC(=O)c1ccccc1	inactive
Cc1cccc(N)c1N	active

What is the recorded call for this molecule in the test? `CC(C)(OOC(C)(C)c1ccccc1)c1ccccc1` inactive

And `CNC(=O)Oc1cccc2c1OC(C)(C)C2` ? active

* * *

procedure_details: ATG_GLI_CIS: Attagene CIS-FACTORIAL HepG2 Assay for human Zinc Finger Protein GLI1 (AID 2282945)
recorded_conditions: HepG2, Attagene cis-factorial reporter mRNA, GLI element; actives raise or lower the signal
Activity calls are given as the source filed them. The calls were made as follows: active = hit-call score of the fitted dose curve at least 0.9, where 1 is the maximum; inactive = score below 0.9.
Outcome field: choose from yes (1) = active, no (0) = inactive

// known answers, use as guide
compound	group_label
c1ccc2c(c1)oc1ccccc12	no (0)
Clc1ccc(Cl)c(Cl)c1	no (0)
CC(C)(C)OOC(=O)c1ccccc1	no (0)

What is the recorded call for this compound in the test? `Oc1ccccc1Cl` no (0)

And CC(O)CCO (stereo not given) ? no (0)

* * *

Read-out: Cytochrome P450 4A22 (Homo sapiens) (UniProt Q5TCH4)
procedure_details: LTEA_HepaRG_CYP4A22: Life Technologies and Expression Analysis (LTEA) Assay for Cytochrome P450 4A22 (CYP4A22) using HepaRG (AID 2283495)
recorded_conditions: mRNA level, 48 h; actives raise or lower the signal
Procedure: LTEA_HepaRG is a cell based, multiplexed-readout assay that uses HepaRG, a human liver cell line, with measurements taken at 48 hours after chemical dosing on a 96-well plate.LTEA_HepaRG_CYP4A22 is one of 102 assay component(s) measured in the LTEA HepaRG cell culture assay. It is a marker of NR mediated metabolism.Data from the assay component LTEA_HepaRG_CYP4A22 was analyzed into 1 endpoint. […]
Active and inactive are the calls of the source. How the source made its calls: active means hit-call score of the fitted dose curve at least 0.9, where 1 is the maximum; inactive means score below 0.9.
Outcome field: choose from active, inactive

molecule	group_label
CN(C)[C@@H]1C(=O)C(C(N)=O)=C(O)[C@@]2(O)C(=O)C3=C(O)c4c(O)cccc4[C@@](C)(O)[C@H]3C[C@@H]12	inactive
C1=Cc2cccc3cccc1c23	inactive
CN(C)c1ccc(C(=O)c2ccc(N(C)C)cc2)cc1	active
COC(=O)Nc1nc2ccccc2[nH]1	inactive
CCCCOC(=O)c1ccccc1C(=O)OCc1ccccc1	inactive
O=[N+]([O-])c1ccc(Oc2ccc(Cl)cc2Cl)cc1	inactive
CC(C)N(Cc1ccccc1)C(=O)C(C)(C)C	inactive
O=C(O)C1C2CCC(O2)C1C(=O)O (stereo not drawn)	active
CC(C)(OOC(C)(C)c1ccccc1)c1ccccc1	inactive
O=C(Oc1ccc(Br)cc1)N1CCN2CCC1CC2	active

What is the recorded call for this molecule in the test? `Cn1cc(-c2ccccc2)c(=O)c(-c2cccc(C(F)(F)F)c2)c1` inactive

And `O=C(N[C@H](c1ccccc1)[C@@H]1CN2CCC1CC2)c1c(Cl)ccc(C(F)(F)F)c1Cl` ? active

And c1ccc(C2CO2)cc1 (stereo not drawn) ? inactive

And `CCOC(=O)[C@]1(c2ccccc2)Oc2ccccc2[C@@H]1N` ? active

And `Clc1ccc(C(c2ccc(Cl)cc2)C(Cl)(Cl)Cl)cc1` ? active

And `Nc1ccc(Cc2ccc(N)cc2)cc1` ? inactive

And `Oc1ccccc1Cl` ? inactive

And C[N+](C)(C)CC1CO1 (stereo not drawn) ? inactive

And CCC(C)c1ccc(O)cc1 (stereo not drawn) ? inactive

And `N#CC(Br)(Br)C(N)=O` ? inactive

And `N#CC(Br)Br` ? inactive

And `ClCCOCCCl` ? inactive
